# ASSAY TARGET: rChAT (recombinant choline acetyltransferase) (Homo sapiens, UniProt P28329)
# Sequence (P28329 119-748): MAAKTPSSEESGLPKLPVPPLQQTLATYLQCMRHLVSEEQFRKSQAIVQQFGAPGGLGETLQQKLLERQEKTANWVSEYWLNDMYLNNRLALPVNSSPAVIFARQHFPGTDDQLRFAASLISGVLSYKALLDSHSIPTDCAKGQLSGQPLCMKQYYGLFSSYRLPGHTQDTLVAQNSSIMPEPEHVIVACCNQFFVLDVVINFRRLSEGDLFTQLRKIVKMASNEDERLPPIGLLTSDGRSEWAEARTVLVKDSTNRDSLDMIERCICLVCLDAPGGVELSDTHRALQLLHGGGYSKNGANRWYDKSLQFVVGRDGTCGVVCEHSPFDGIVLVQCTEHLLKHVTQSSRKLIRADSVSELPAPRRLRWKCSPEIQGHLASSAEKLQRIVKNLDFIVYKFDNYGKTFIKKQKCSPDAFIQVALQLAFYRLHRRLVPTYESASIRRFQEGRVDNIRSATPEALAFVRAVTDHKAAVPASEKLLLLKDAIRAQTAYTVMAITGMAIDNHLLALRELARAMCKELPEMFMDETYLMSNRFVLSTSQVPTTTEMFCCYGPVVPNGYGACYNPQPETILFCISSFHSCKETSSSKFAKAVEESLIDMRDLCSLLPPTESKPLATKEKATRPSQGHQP
# ASSAY INFO: colorimetric ChAT assay
pIC50: −log10 of the molar value.
PROPERTY NAME: pIC50

* C[N+](C)(C)CCC(=O)c1cccc2ccccc12 | 6.83
